target: S. pyogenes SKKanGAS, kanamycin survival, BacTiterGlo, 6 h; assay: S. pyogenes SKKanGAS kanamycin growth inhibitors – SKKanGAS strain, luminescence, dose confirmation, streptokinase promoter inhibitor project, dose response (AID 1902);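 further: lower survival reflects blocked streptokinase promoter driving kanamycin resistance gene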
Activity calls are given as the source filed them.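 How the source made its calls: active means EC50 no more than a set limit of log units above the highest dose; inactive means the rest.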
Classes used: active, inactive

{"Compound": "CN(C)CCOc1ccc(/C(=C(/CCCl)c2ccccc2)c2ccccc2)cc1", "Group": "active"}
{"Compound": "CN(C)S(=O)(=O)c1ccc(C(=O)Nc2nnc(-c3ccc4c(c3)CCCC4)o2)cc1", "Group": "active"}
{"Compound": "Cc1nn(Cc2ccccc2Cl)c2sc(C(=O)Nc3ccccc3N3CCOCC3)cc12", "Group": "active"}
{"Compound": "c1ccc(-c2nnc(-c3ccccn3)nc2NC2CCCCC2)cc1", "Group": "active"}
{"Compound": "CCN(CC)C(=S)Sc1c(-c2ccccc2)c2cc(Cl)ccc2[nH]c1=O", "Group": "active"}
{"Compound": "O=C(/C=C/c1ccccc1)NC(=S)NNC(=O)Cc1cccs1", "Group": "active"}
{"Compound": "NC(=O)N=Nc1c2[nH]c3ccccc3nc-2c2ccccc12", "Group": "active"}
{"Compound": "O=C(NC1=NCCS1)c1cc(-c2ccccc2)nn1-c1ccccc1", "Group": "active"}
{"Compound": "O=C(O)CC/C(=C\\c1cc2c(cc1Br)OCO2)c1nc2ccccc2s1", "Group": "active"}
{"Compound": "O=C(N/N=C/c1cccc(F)c1)c1c(O)c2ccccc2[nH]c1=O", "Group": "active"}
{"Compound": "CC1=NN(C(N)=S)C(=O)C1N=Nc1c(C)cc(C)cc1C (stereo not drawn)", "Group": "active"}
{"Compound": "CCOC(=O)C1=Nc2ccccc2C1=[N+]=[N-]", "Group": "active"}
{"Compound": "O=C(NC(=S)Nc1ccccc1N1CCCCC1)c1ccc(F)cc1Cl", "Group": "active"}
{"Compound": "O=C(Nc1ncc(Cc2cccc(Cl)c2)s1)c1cccs1", "Group": "active"}
{"Compound": "Cn1nnnc1SCC(=O)Nc1nc(-c2ccccc2)c(-c2ccccc2)o1", "Group": "active"}
{"Compound": "O=C(COc1ccc(Cl)cc1)Nc1nnc(-c2ccc3c(c2)CCCC3)o1", "Group": "active"}
{"Compound": "NCCS(=O)(=O)NC1CCCCC1", "Group": "inactive"}
{"Compound": "Cc1cccc(OCCn2c(NC(=O)c3ccco3)nc3ccccc32)c1", "Group": "active"}
{"Compound": "O=C(Nc1nc(-c2cc(Cl)sc2Cl)cs1)c1cccs1", "Group": "active"}
{"Compound": "CC(C)COCc1ccc(O)c2ncccc12", "Group": "active"}
{"Compound": "Cc1nnc(Sc2cc(NCCCO)c([N+](=O)[O-])c3nonc23)s1", "Group": "active"}
{"Compound": "O=C(Nc1nnc(C2=COCCO2)o1)c1cccc(F)c1", "Group": "active"}
{"Compound": "CC(C)(C)c1ccc(S(=O)(=O)N2CCC(c3nc4ccc(Cl)cc4[nH]3)CC2)cc1", "Group": "active"}
{"Compound": "COc1ccccc1OCC(=O)NNC(=S)NC(=O)c1ccco1", "Group": "active"}
{"Compound": "CCOC(=O)c1c(C)[nH]c(C(=O)N/N=C/c2cc([N+](=O)[O-])ccc2O)c1C", "Group": "active"}
{"Compound": "O=C1c2ccc3c4c(ccc(c24)C(=O)N1c1cccc(O)c1)C(=O)N(c1cccc(O)c1)C3=O", "Group": "active"}
{"Compound": "CC(C)c1ccc2c(c1)c(SC(C)(C)C)c(CC(C)(C)C(=O)O)n2Cc1ccc(Cl)cc1", "Group": "active"}
{"Compound": "O=C(N/N=C(\\c1ccccc1)c1cccnc1)c1cccc(F)c1", "Group": "active"}
{"Compound": "C[C@@H]1CC[C@@]2(OC1)O[C@H]1C[C@H]3[C@@H]4CC=C5C[C@@H](O)[C@H](O)C[C@]5(C)C4CC[C@]3(C)[C@H]1[C@@H]2C (stereo partly drawn)", "Group": "active"}
{"Compound": "CC(C)Cc1csc(NC(=O)c2ccc(Br)cc2)c1C(=O)O", "Group": "active"}
{"Compound": "COc1ccc(-c2oc(NC(=O)CCl)c(C#N)c2-c2ccc(OC)cc2)cc1", "Group": "active"}
{"Compound": "CCCN(CC(=O)Nc1ccccc1OC)C(=O)c1ccncc1", "Group": "inactive"}
{"Compound": "CC(C)(C)c1cc(Cl)c(O)c(NC(=S)NC(=O)c2cccnc2)c1", "Group": "active"}
